# Tested on: Mus musculus
# assay-remarks: Anticonvulsant activity in CF1 albino mouse assessed as protection against maximal electroshock-induced seizure at 3 mg/kg, ip after 0.5 hrs
# Assay type: functional, organism-based
Calls of active or inactive are those of the source. The calls are words filed in the database; no cut-off is given here.
endpoint-label: Activity

Sample records with Activity:
CC1CCN(CCCCCCCOc2ccc(Cl)cc2)CC1.O=C(O)C(=O)O: inactive
CC1CCCN(CCCCCCCOc2ccc(Cl)cc2)C1.O=C(O)C(=O)O (stereo unspecified): inactive
Clc1ccc(OCCCCCCN2CCCCC2)cc1.O=C(O)C(=O)O: inactive
Clc1ccc(OCCCCCN2CCCCC2)cc1.O=C(O)C(=O)O: inactive
Clc1ccc(OCCCCCCCN2CCCCC2)cc1.O=C(O)C(=O)O: inactive
CC1CCN(CCCCCOc2ccc(Cl)cc2)CC1.O=C(O)C(=O)O: inactive

query: Quick one: give measured Activity for `Clc1ccc(OCCCCCN2CCCCCC2)cc1.O=C(O)C(=O)O`
result: inactive

query: Quick one: give measured Activity for CC1CCCN(CCCCCCOc2ccc(Cl)cc2)C1.O=C(O)C(=O)O (stereo unspecified)
result: inactive

query: Quick one: give measured Activity for `CC1CCN(CCCCCCOc2ccc(Cl)cc2)CC1.O=C(O)C(=O)O`
result: inactive

query: Quick one: give measured Activity for `Clc1ccc(OCCCCCCCN2CCCCCC2)cc1.O=C(O)C(=O)O`
result: inactive

query: Quick one: give measured Activity for CC1CCCN(CCCCCCOc2cccc(Cl)c2)C1.O=C(O)C(=O)O (stereo unspecified)
result: inactive

====

# Test system: Mus musculus
# assay-remarks: Anticonvulsant activity in CF1 albino mouse assessed as protection against maximal electroshock-induced seizure at 30 mg/kg, ip after 4 hrs
# Assay type: functional, organism-based
Calls of active or inactive are those of the source. No cut-off for these calls is given here.
Can you answer with just one of these options? active, inactive

CC1CCN(CCCCCCCOc2cccc(Cl)c2)CC1.O=C(O)C(=O)O: inactive
CC1CCCN(CCCCCCOc2ccc(Cl)cc2)C1.O=C(O)C(=O)O (stereo unspecified): inactive
Clc1ccc(OCCCCCCN2CCCCC2)cc1.O=C(O)C(=O)O: inactive
CC1CCCN(CCCCCCOc2cccc(Cl)c2)C1.O=C(O)C(=O)O (stereo unspecified): inactive
Clc1ccc(OCCCCCN2CCCCCC2)cc1.O=C(O)C(=O)O: inactive
Clc1ccc(OCCCCCCN2CCCCCC2)cc1.O=C(O)C(=O)O: inactive
CC1CCCN(CCCCCCCOc2cccc(Cl)c2)C1.O=C(O)C(=O)O (stereo unspecified): inactive
CC1CCN(CCCCCOc2ccc(Cl)cc2)CC1.O=C(O)C(=O)O: active
Clc1ccc(OCCCCCN2CCCCC2)cc1.O=C(O)C(=O)O: inactive
Clc1ccc(OCCCCCCCN2CCCCCC2)cc1.O=C(O)C(=O)O: inactive

# evaluate next
query: // return assay outcome for `Clc1cccc(OCCCCCCCN2CCCCC2)c1.O=C(O)C(=O)O`
result: inactive

====

# Tested on: Mus musculus
# assay-remarks: Anticonvulsant activity in CF1 albino mouse assessed as protection against 6 Hz-psychomotor-induced seizure at 50 mg/kg, ip after 4 hrs
# Format: functional, organism-based
Calls of active or inactive are those of the source. The rule behind the calls is not given here.
endpoint-label: Activity

Sample records with Activity:
Clc1ccc(OCCCCCCCN2CCCCCC2)cc1.O=C(O)C(=O)O: inactive
CC1CCN(CCCCCCOc2ccc(Cl)cc2)CC1.O=C(O)C(=O)O: inactive
CC1CCCN(CCCCCCOc2cccc(Cl)c2)C1.O=C(O)C(=O)O (stereo unspecified): inactive
Clc1cccc(OCCCCCCN2CCCCCC2)c1.O=C(O)C(=O)O: inactive
Clc1ccc(OCCCCCCN2CCCCCC2)cc1.O=C(O)C(=O)O: inactive

Next:
query: Quick one: give measured Activity for `Clc1cccc(OCCCCCCN2CCCCC2)c1.O=C(O)C(=O)O`
result: inactive

====

# Test system: Mus musculus
# assay-remarks: Anticonvulsant activity in CF1 albino mouse assessed as protection against 6 Hz-psychomotor-induced seizure at 50 mg/kg, ip after 0.25 hrs
# Type: functional, organism-based
The source made the active and inactive calls. The rule behind the calls is not given here.
Can you answer with just one of these options? yes for active, no for inactive

Examples from the recorded data:
Clc1cccc(OCCCCCCN2CCCCCC2)c1.O=C(O)C(=O)O: no
CC1CCCN(CCCCCCOc2cccc(Cl)c2)C1.O=C(O)C(=O)O (stereo not given): no
Clc1ccc(OCCCCCCN2CCCCCC2)cc1.O=C(O)C(=O)O: no
CC1CCN(CCCCCCOc2cccc(Cl)c2)CC1.O=C(O)C(=O)O: yes

# evaluate next
query: // return assay outcome for `Clc1ccc(OCCCCCCCN2CCCCCC2)cc1.O=C(O)C(=O)O`
result: no
